ASSAY_TARGET: 5-hydroxytryptamine receptor 1F (Homo sapiens)
PROTOCOL_DESCRIPTION: Maximum stimulation of [35S]GTP-gamma-S, binding expressed relative to the maximal effect of 5-hydroxytryptamine […]
Format: functional
Strictly below 90% in Emax: yes (1). Otherwise: no (0).

Reference set (3 entries):
CN1CCC(c2c[nH]c3ccc(NC(=O)c4ccccn4)nc23)CC1 | yes (1)
CC(=O)Nc1ccc2[nH]cc(C3CCN(C)CC3)c2n1 | no (0)
CCCC(=O)Nc1ccc2[nH]cc(C3CCN(C)CC3)c2n1 | no (0)

Q: Dear colleague, could you confirm whether Emax of CN1CCC(c2c[nH]c3ccc(NC(=O)c4ccncc4)nc23)CC1 falls below 90%? Thanks.
Result: no (0)

Q: Dear colleague, could you confirm whether Emax of CN1CCC(c2c[nH]c3ccc(NC(=O)c4cccs4)nc23)CC1 falls below 90%? Thanks.
Result: yes (1)

Attribution: ChEMBL document CHEMBL1145835
